Biological target: T1, human NMI (N-myc Interacting protein), recombinant protein (human, UniProt Q13287 1-307, limits assumed)
T1 construct: Gene ID: 9111; also called hNMI; antigen
T1 sequence (looked up): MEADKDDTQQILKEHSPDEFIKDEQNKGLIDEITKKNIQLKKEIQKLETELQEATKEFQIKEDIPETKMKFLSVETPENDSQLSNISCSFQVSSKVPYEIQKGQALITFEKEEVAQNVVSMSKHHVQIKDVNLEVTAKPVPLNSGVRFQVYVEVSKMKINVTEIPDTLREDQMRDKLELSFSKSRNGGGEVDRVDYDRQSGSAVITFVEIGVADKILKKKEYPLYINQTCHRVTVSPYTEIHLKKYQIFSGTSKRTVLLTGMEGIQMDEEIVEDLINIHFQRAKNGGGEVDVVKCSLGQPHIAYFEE
Experiment: sandwich ELISA; detection 94C4-1-biotin 0.5µg/mL; hNMI 48.828 pg/mL
Let's look at some binders and their measured OD450.
measured_quantity: OD450 (OD450)

[[record]]
binder = "monoclonal antibody B-8 (antibody, V domains shown, Rabbit monoclonal antibody; also called B8-1) VH: QSLEESGGDLVKPGASLTLTCTASGFSFSSSYYMCWVRQAPGKGLEWIACIYAGSSGSTYYASWAKGRFTISKTSSTTVTLQMTSLTAADTATYFCAREYSYDDYGDFWGFNLWGPGTLVTVSS VL: ALVMTQTPSSVSAAVGGTVTINCQASQNIYTNLAWYQQKPGQPPKLLIYGASNLESGVPSRFKGSGSGTEYTLTISDLECDDAATYYCQSSLYSRIADRANAFGGGTEVVVK"
measured_quantity = "OD450"
uom = "OD450"
assay_value = 0.102

[[record]]
binder = "monoclonal antibody 39B4 (antibody, V domains shown, Rabbit monoclonal antibody; also called 39B4-1) VH: QEQLVESGGGLVQPEGSLTLTCTASGFSFSSSYWICWVRQAPGKGLEWIACIYAGTSGSTYYASWAKGRFTISKTSSTTVDLQMNSLTAADTATYFCARAGYYTYGAGVYIYPSSFKLWGPGTLVTVSS VL: DVVMTQTPASVEAAVGGTVTIKCQASESIGNALAWYQQKPGQPPKLLIYSASNLASGVPSRFSGSGSGTQFTLTISDLECADAATYYCQSYYYSSSSITFGGGTEVVVK"
measured_quantity = "OD450"
uom = "OD450"
assay_value = 0.13

[[record]]
binder = "monoclonal antibody 240B10-1 (antibody, V domains shown, Rabbit monoclonal antibody) VH: QSLEESGGRLVTPGGSLTLTCTVSGIDLSSYTMGWVRQAPGKGLEYIGIISGGGRTYYASWAKGRFTISKTSSTTVDLKVTSLTTEDTATYFCARIYTLWGQGTLVTVSS VL: QVLTQTLASVSAAVGGTVTINCQSSQSVYNNDYLAWFQQKSGQPPKQLIHSASKLASGVPSRFKGSGSGTQFTLTINDVQCDDAATYYCLGGYDCYSADCNVFGGGTEVVVK"
measured_quantity = "OD450"
uom = "OD450"
assay_value = 0.125

[[record]]
binder = "monoclonal antibody 98G10 (antibody, V domains shown, Rabbit monoclonal antibody) VH: QEQLEESGGDLVKPEGSLTLTCTASGFSFSASYWICWVRQAPGKGLEWIACIYGGSSGSAYYASWAKGRFTISKTSSTTVTLQMTSLTAADTATYFCARAGYYNYGSAGDIYPSSFKLWGPGTLVTVSS VL: DIVMTQTPASVEAAVGGTVTINCQASQSISTALAWYQQKPGQPPKLLIYTASKVASGVPSRFSGSGSGTQFTLTISDLECADAATYYCQNYYYSSSSITFGGGTEVVVK"
measured_quantity = "OD450"
uom = "OD450"
assay_value = 0.108


All figures here come from patent EP4682166A1.
